# subject.of.test: Histone deacetylase 3 (Homo sapiens)
# assay.method.text: Activation of HDAC3 using Fluor-de-Lys as substrate at 100 uM by spectrofluorometry
Active and inactive are the calls of the source. The rule behind the calls is not given here.
result.type: Activity

Here are 5 compounds together with their reported answers.
smiles	result.type	result
O=C(NC(=S)NCc1ccccc1)c1ccccc1F	Activity	inactive
O=C(NC(=S)Nc1ccccc1)c1ccccc1F	Activity	inactive
O=C(NC(=S)NCc1ccc(-c2ccccc2)cc1)c1ccccc1	Activity	inactive
O=C(NC(=S)NCc1ccccc1)c1ccccc1	Activity	inactive
C[C@H](NC(=S)NC(=O)c1ccccc1)c1ccccc1	Activity	inactive

// sample O=C(NC(=S)NCc1ccc(F)cc1)c1ccccc1 , its Activity was inactive

// sample O=C(NC(=S)NCCc1ccccc1)c1ccccc1 , its Activity was inactive

// sample O=C(NC(=S)NC1CCCCC1)c1ccccc1 , its Activity was inactive

// sample O=C(NC(=S)NCc1cc(C(F)(F)F)cc(C(F)(F)F)c1)c1ccccc1 , its Activity was inactive

====

# subject.of.test: Protein deacetylase HDAC6 (Homo sapiens) (UniProt Q9UBN7)
# Sequence (whole entry): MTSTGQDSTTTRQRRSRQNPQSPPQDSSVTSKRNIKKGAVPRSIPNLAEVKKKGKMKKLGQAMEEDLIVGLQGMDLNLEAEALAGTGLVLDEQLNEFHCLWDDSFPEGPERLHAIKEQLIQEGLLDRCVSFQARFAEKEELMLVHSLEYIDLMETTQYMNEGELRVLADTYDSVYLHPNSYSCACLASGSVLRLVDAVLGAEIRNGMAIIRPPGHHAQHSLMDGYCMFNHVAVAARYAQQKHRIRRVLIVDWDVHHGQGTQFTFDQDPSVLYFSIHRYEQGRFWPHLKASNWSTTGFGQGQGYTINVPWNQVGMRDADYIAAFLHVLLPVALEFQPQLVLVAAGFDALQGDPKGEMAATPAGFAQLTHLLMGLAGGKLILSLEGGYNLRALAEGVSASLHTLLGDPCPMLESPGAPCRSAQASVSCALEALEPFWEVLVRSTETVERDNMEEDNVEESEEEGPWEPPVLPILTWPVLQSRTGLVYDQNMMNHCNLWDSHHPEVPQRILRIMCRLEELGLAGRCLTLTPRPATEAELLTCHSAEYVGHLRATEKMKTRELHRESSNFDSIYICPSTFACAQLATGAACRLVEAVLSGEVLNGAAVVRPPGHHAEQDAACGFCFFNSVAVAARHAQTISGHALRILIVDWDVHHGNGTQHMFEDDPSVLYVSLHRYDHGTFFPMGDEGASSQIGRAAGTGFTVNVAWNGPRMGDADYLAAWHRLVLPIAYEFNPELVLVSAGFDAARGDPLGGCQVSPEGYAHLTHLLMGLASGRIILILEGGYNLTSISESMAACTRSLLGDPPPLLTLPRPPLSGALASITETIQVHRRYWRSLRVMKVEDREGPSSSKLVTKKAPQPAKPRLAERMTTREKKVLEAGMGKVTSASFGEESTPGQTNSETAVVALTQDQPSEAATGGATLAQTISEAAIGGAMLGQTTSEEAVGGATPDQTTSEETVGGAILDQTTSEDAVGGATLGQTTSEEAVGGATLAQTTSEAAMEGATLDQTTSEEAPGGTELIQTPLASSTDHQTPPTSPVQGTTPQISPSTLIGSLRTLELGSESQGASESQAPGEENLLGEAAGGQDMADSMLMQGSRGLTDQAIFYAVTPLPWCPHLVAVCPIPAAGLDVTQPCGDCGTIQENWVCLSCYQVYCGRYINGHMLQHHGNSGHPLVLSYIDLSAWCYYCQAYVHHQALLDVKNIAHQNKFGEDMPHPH
# assay.method.text: Activation of HDAC6 using Fluor-de-Lys as substrate at 100 uM by spectrofluorometry
Activity calls are given as the source filed them. The rule behind the calls is not given here.
result.type: Activity

smiles	result.type	result
O=C(NC(=S)NC1CCCCC1)c1ccccc1	Activity	inactive
O=C(NC(=S)NCc1ccc(C(F)(F)F)cc1)c1ccccc1	Activity	inactive
O=C(NC(=S)NCc1ccccc1)c1ccccc1F	Activity	inactive
O=C(NC(=S)NCc1ccc(-c2ccccc2)cc1)c1ccccc1	Activity	inactive
O=C(NC(=S)Nc1ccccc1)c1ccccc1F	Activity	inactive

// sample O=C(NC(=S)NCc1ccccc1)c1ccccc1 , its Activity was inactive

// sample O=C(NC(=S)NCCc1ccccc1)c1ccccc1 , its Activity was inactive

// sample C[C@H](NC(=S)NC(=O)c1ccccc1)c1ccccc1 , its Activity was inactive

// sample O=C(NC(=S)NCc1ccc(F)cc1)c1ccccc1 , its Activity was inactive

====

# subject.of.test: Histone deacetylase 3 (Homo sapiens)
# assay.method.text: Inhibition of HDAC3 using Fluor-de-Lys as substrate at 100 uM by spectrofluorometry
Active and inactive are the calls of the source. The rule behind the calls is not given here.
result.type: inhibition

smiles	subject.of.test	result.type	result
O=C(NC(=S)NC1CCCCC1)c1ccccc1	Histone deacetylase 3 (Homo sapiens)	inhibition	inactive
COc1cc(NC(=S)NC(=O)c2ccccc2)cc(OC)c1	Histone deacetylase 3 (Homo sapiens)	inhibition	5%
O=C(NC(=S)NCc1ccc(F)cc1)c1ccccc1	Histone deacetylase 3 (Homo sapiens)	inhibition	inactive
O=C(NC(=S)NCc1ccccc1)c1ccccc1	Histone deacetylase 3 (Homo sapiens)	inhibition	inactive

// sample O=C(NC(=S)NCc1ccccc1)c1ccccc1F , its inhibition was inactive

// sample O=C(NC(=S)Nc1ccccc1)c1ccccc1 , its inhibition was 6%

// sample O=C(NC(=S)NCc1ccc(C(F)(F)F)cc1)c1ccccc1 , its inhibition was 5%

// sample C[C@H](NC(=S)NC(=O)c1ccccc1)c1ccccc1 , its inhibition was inactive

// sample O=C(NC(=S)NCc1cc(C(F)(F)F)cc(C(F)(F)F)c1)c1ccccc1 , its inhibition was inactive

// sample O=C(NC(=S)NCCc1ccccc1)c1ccccc1 , its inhibition was inactive

// sample O=C(NC(=S)Nc1ccccc1)c1ccccc1F , its inhibition was inactive

// sample C[C@@H](NC(=S)NC(=O)c1ccccc1)c1ccccc1 , its inhibition was 6%

// sample O=C(NC(=S)NCc1ccc(-c2ccccc2)cc1)c1ccccc1 , its inhibition was inactive

// sample O=C(NC(=S)NCc1cccs1)c1ccccc1 , its inhibition was 5%

====

# subject.of.test: Histone deacetylase 1 (Homo sapiens) (UniProt Q13547)
# Sequence (Q13547 whole entry): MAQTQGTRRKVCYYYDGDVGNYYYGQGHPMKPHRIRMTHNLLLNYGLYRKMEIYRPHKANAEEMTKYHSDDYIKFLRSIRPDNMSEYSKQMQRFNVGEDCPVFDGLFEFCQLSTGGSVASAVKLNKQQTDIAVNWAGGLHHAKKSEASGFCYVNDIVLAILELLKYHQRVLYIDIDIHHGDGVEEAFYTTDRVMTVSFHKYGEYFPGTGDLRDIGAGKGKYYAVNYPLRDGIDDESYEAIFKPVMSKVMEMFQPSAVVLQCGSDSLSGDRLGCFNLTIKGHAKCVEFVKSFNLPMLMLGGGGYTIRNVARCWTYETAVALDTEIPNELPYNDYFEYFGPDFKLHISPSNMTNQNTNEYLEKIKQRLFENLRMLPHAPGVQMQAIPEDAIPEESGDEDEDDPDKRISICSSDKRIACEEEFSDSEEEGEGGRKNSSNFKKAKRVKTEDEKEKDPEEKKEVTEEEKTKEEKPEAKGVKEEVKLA
# assay.method.text: Activation of HDAC1 using Fluor-de-Lys as substrate at 10 uM by spectrofluorometry
The source made the active and inactive calls. The calls are words filed in the database; no cut-off is given here.

smiles	Activity
O=C(NC(=S)NCc1ccc(-c2ccccc2)cc1)c1ccccc1	inactive
O=C(NC(=S)NCc1ccc(C(F)(F)F)cc1)c1ccccc1	inactive
O=C(NC(=S)NCCc1ccccc1)c1ccccc1	inactive

====

# subject.of.test: Histone deacetylase 3 (Homo sapiens)
# assay.method.text: Activation of HDAC3 using Fluor-de-Lys as substrate at 10 uM by spectrofluorometry
Activity calls are given as the source filed them. The calls are words filed in the database; no cut-off is given here.
result.type: Activity

Here are 4 compounds together with their reported answers.
smiles	subject.of.test	result.type	result
O=C(NC(=S)NCCc1ccccc1)c1ccccc1	Histone deacetylase 3 (Homo sapiens)	Activity	inactive
O=C(NC(=S)NCc1ccc(F)cc1)c1ccccc1	Histone deacetylase 3 (Homo sapiens)	Activity	inactive
O=C(NC(=S)NCc1ccccc1)c1ccccc1	Histone deacetylase 3 (Homo sapiens)	Activity	inactive
O=C(NC(=S)NCc1cc(C(F)(F)F)cc(C(F)(F)F)c1)c1ccccc1	Histone deacetylase 3 (Homo sapiens)	Activity	inactive

// sample C[C@H](NC(=S)NC(=O)c1ccccc1)c1ccccc1 , its Activity was inactive

// sample O=C(NC(=S)NCc1ccccc1)c1ccccc1F , its Activity was inactive

// sample O=C(NC(=S)NC1CCCCC1)c1ccccc1 , its Activity was inactive

// sample O=C(NC(=S)Nc1ccccc1)c1ccccc1F , its Activity was inactive

// sample O=C(NC(=S)NCc1ccc(-c2ccccc2)cc1)c1ccccc1 , its Activity was inactive

====

# subject.of.test: UniProt Q96DB2
# Sequence (Q96DB2 whole entry): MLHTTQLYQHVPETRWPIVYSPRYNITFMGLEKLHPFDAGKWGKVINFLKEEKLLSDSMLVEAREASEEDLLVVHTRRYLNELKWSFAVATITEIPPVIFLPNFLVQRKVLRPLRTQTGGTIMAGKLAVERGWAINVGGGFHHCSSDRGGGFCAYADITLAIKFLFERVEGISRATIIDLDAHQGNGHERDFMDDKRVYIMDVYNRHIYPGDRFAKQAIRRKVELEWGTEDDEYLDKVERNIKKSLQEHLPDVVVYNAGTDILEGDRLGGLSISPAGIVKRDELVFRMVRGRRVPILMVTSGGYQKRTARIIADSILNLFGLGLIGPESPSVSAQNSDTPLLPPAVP
# assay.method.text: Inhibition of HDAC11 using Fluor-de-Lys as substrate at 100 uM by spectrofluorometry
Active and inactive are the calls of the source. The calls are words filed in the database; no cut-off is given here.
result.type: inhibition

smiles	inhibition
O=C(NC(=S)NCc1ccc(F)cc1)c1ccccc1	6%
O=C(NC(=S)Nc1ccccc1)c1ccccc1F	inactive
O=C(NC(=S)NCCc1ccccc1)c1ccccc1	6%
O=C(NC(=S)NCc1ccccc1)c1ccccc1	inactive
C[C@H](NC(=S)NC(=O)c1ccccc1)c1ccccc1	10%
COc1cc(NC(=S)NC(=O)c2ccccc2)cc(OC)c1	10%
O=C(NC(=S)NC1CCCCC1)c1ccccc1	inactive
O=C(NC(=S)NCc1ccccc1)c1ccccc1F	14%
O=C(NC(=S)Nc1ccccc1)c1ccccc1	14%
O=C(NC(=S)NCc1ccc(-c2ccccc2)cc1)c1ccccc1	10%

# ---- query compound ----
// sample O=C(NC(=S)NCc1cccs1)c1ccccc1 , its inhibition was 12%

====

# subject.of.test: UniProt Q13547
# assay.method.text: Inhibition of HDAC1 using Fluor-de-Lys as substrate at 100 uM by spectrofluorometry
The source made the active and inactive calls. No cut-off for these calls is given here.
result.type: inhibition

smiles	inhibition
O=C(NC(=S)Nc1ccccc1)c1ccccc1F	5%
O=C(NC(=S)NCc1ccc(F)cc1)c1ccccc1	5%
O=C(NC(=S)NCc1ccccc1)c1ccccc1F	inactive
O=C(NC(=S)Nc1ccccc1)c1ccccc1	8%
O=C(NC(=S)NCc1cc(C(F)(F)F)cc(C(F)(F)F)c1)c1ccccc1	inactive
O=C(NC(=S)NCc1ccccc1)c1ccccc1	5%

# ---- query molecule ----
// sample O=C(NC(=S)NCCc1ccccc1)c1ccccc1 , its inhibition was inactive

The measurements presented in this section are drawn from ChEMBL document CHEMBL1833857.
